Test system: A549/ATCC NSCLC
Assay: NCI-60 one-dose screen, 48 h
Conditions: 10 µM
Compounds without any hit were thinned out: in the full panel of roughly 83,000, 20% have a hit. Activity calls are given as the source filed them. How the source made its calls: active means growth percent below 10; inactive means the rest.
Outcomes: label 1 (active), label 0 (inactive)

- molecule: "CS(=O)(=O)Nc1ccc([N+](=O)[O-])cc1Oc1ccccc1"
  target_entity: "A549/ATCC NSCLC"
  category_label: "label 0"
- molecule: "CCc1nn2c(-c3ccccc3)c(-c3cc(OC)c(OC)c(OC)c3)nc2s1"
  target_entity: "A549/ATCC NSCLC"
  category_label: "label 0"
- molecule: "CCOc1nc(-c2ccccc2)cc2c(O)c(C(=O)N/N=C/c3ccc(OC)cc3)[nH]c(=O)c12"
  target_entity: "A549/ATCC NSCLC"
  category_label: "label 0"
- molecule: "CCN1CCN(c2nc(NNC(=O)c3cccc(OC)c3)nc(N3CCN(C(c4ccccc4)c4ccccc4)CC3)n2)CC1"
  target_entity: "A549/ATCC NSCLC"
  category_label: "label 0"
- molecule: "COc1ccccc1CNCCCN1C(=O)c2ccc3c4c(ccc(c24)C1=O)C(=O)N(CCCNCCNCCCN)C3=O"
  target_entity: "A549/ATCC NSCLC"
  category_label: "label 1"
- molecule: "COc1ccc(-c2[nH]ncc2/C=C/c2cc(C(F)(F)F)[nH]c(=O)n2)cc1"
  target_entity: "A549/ATCC NSCLC"
  category_label: "label 0"
- molecule: "COC(=O)C1(C(=O)OC)C2C(=O)C3C(C21)C3(C(=O)OC(C)(C)C)C(=O)OC(C)(C)C (centres undefined)"
  target_entity: "A549/ATCC NSCLC"
  category_label: "label 0"
- molecule: "CCCCC(=O)N(c1ccc(Nc2c3ccccc3nc3cc([N+](=O)[O-])ccc23)cc1)S(C)(=O)=O"
  target_entity: "A549/ATCC NSCLC"
  category_label: "label 0"
- molecule: "Clc1ccc(-c2nc(-c3cccs3)cn3ccnc23)cc1"
  target_entity: "A549/ATCC NSCLC"
  category_label: "label 0"
- molecule: "COc1ccc2nc(NC(=O)Nc3c(F)cccc3F)sc2c1"
  target_entity: "A549/ATCC NSCLC"
  category_label: "label 0"
- molecule: "CCN1CCOC1C(C)C (centres undefined)"
  target_entity: "A549/ATCC NSCLC"
  category_label: "label 0"
- molecule: "CC1(C)CC(OCCCC[P+](c2ccccc2)(c2ccccc2)c2ccccc2)CC(C)(C)N1O"
  target_entity: "A549/ATCC NSCLC"
  category_label: "label 1"
- molecule: "COc1ccc(C2C=C(c3ccc(Cl)cc3)N=C3SC=CN32)c(Br)c1 (centres undefined)"
  target_entity: "A549/ATCC NSCLC"
  category_label: "label 0"
- molecule: "COC(=O)c1cnc2c(c1)Oc1ccc(Cl)cc1-c1cc(C)nn1-2"
  target_entity: "A549/ATCC NSCLC"
  category_label: "label 0"

Data origin, for the record: PubChem BioAssay (NCI)
